Recorded pIC50 for the following compounds
Molecular target: DRB3*0101 (Homo sapiens, UniProt P01903+P79483)
Assay: biochemical
Note: pIC50 values are expressed as the negative base-10 logarithm of concentration in M.

Below, each entry is followed by its recorded pIC50 result.
## Task Please report pIC50 for the following compound: CSCC[C@H](NC(=O)[C@@H](NC(=O)[C@H](CCC(N)=O)NC(=O)[C@H](Cc1ccccc1)NC(=O)[C@H](CC(N)=O)NC(=O)[C@H](CCCCN)NC(=O)[C@@H]1CCCN1C(=O)[C@@H](N)CC(N)=O)[C@@H](C)O)C(=O)N1CCC[C@H]1C(=O)NCC(=O)N[C@H](C(=O)N[C@@H](Cc1ccccc1)C(=O)N[C@@H](CCC(N)=O)C(=O)N[C@H](C(=O)N[C@H](C(=O)O)[C@@H](C)O)[C@@H](C)O)[C@@H](C)O
## Result 5.60

## Task Please report pIC50 for the following compound: CC[C@H](C)[C@H](NC(=O)[C@@H](N)CCCCN)C(=O)N1CCC[C@H]1C(=O)NCC(=O)NCC(=O)N[C@@H](C)C(=O)N[C@@H](CCSC)C(=O)N[C@@H](Cc1ccc(O)cc1)C(=O)N[C@@H](C)C(=O)N[C@@H](CC(=O)O)C(=O)N[C@@H](CC(=O)O)C(=O)N[C@H](C(=O)N[C@@H](C)C(=O)NCC(=O)N[C@@H](Cc1c[nH]c2ccccc12)C(=O)N[C@@H](CC(=O)O)C(=O)N[C@H](C(=O)O)[C@@H](C)O)[C@@H](C)O
## Result 7.35

## Task Please report pIC50 for the following compound: CC(C)C[C@H](NC(=O)[C@H](C)NC(=O)[C@H](CCC(=O)O)NC(=O)[C@H](Cc1ccccc1)NC(=O)[C@H](CCC(=O)O)NC(=O)[C@H](CC(C)C)NC(=O)[C@H](Cc1ccc(O)cc1)NC(=O)[C@H](CCCNC(=N)N)NC(=O)[C@H](C)NC(=O)CNC(=O)[C@H](CC(C)C)NC(=O)[C@@H](N)Cc1c[nH]c2ccccc12)C(=O)NCC(=O)N[C@@H](Cc1ccccc1)C(=O)N[C@@H](CC(C)C)C(=O)N[C@@H](CC(N)=O)C(=O)N[C@@H](CCC(=O)O)C(=O)O
## Result 7.59

## Task Please report pIC50 for the following compound: CC(C)C[C@H](NC(=O)[C@H](CCCNC(=N)N)NC(=O)[C@H](CCCCN)NC(=O)CNC(=O)[C@H](CC(N)=O)NC(=O)[C@H](Cc1ccc(O)cc1)NC(=O)[C@@H](NC(=O)[C@H](CC(C)C)NC(=O)[C@@H](N)C(C)C)[C@@H](C)O)C(=O)N[C@@H](CCC(=O)O)C(=O)N1CCC[C@H]1C(=O)N[C@@H](CC(N)=O)C(=O)N[C@@H](Cc1c[nH]c2ccccc12)C(=O)N[C@@H](C)C(=O)N[C@@H](CO)C(=O)O
## Result 5.27

## Task Please report pIC50 for the following compound: CC[C@H](C)[C@H](NC(=O)[C@H](C)NC(=O)CNC(=O)[C@@H](NC(=O)[C@H](CCC(=O)O)NC(=O)CN)[C@@H](C)CC)C(=O)N[C@@H](C)C(=O)N[C@@H](CC(C)C)C(=O)N[C@@H](CC(=O)O)C(=O)N[C@@H](Cc1ccccc1)C(=O)N[C@@H](CCCCN)C(=O)N1CCC[C@H]1C(=O)NCC(=O)N[C@H](C(=O)N[C@@H](CO)C(=O)O)[C@@H](C)O
## Result 5.66

***
## Task Please report pIC50 for the following compound: CC[C@H](C)[C@H](NC(=O)[C@@H](NC(=O)[C@H](CCCCN)NC(=O)[C@@H](N)CCCCN)C(C)C)C(=O)N[C@@H](CCC(N)=O)C(=O)N[C@@H](CC(C)C)C(=O)N[C@@H](CO)C(=O)N[C@@H](CCCNC(=N)N)C(=O)N[C@@H](CCCCN)C(=O)N[C@H](C(=O)N[C@@H](Cc1ccccc1)C(=O)N[C@@H](CC(=O)O)C(=O)N[C@H](C(=O)N[C@@H](CCC(=O)O)C(=O)N[C@@H](Cc1ccc(O)cc1)C(=O)O)[C@@H](C)O)[C@@H](C)O
## Result 6.40

## Task Please report pIC50 for the following compound: CC[C@H](C)[C@H](NC(=O)[C@H](C)N)C(=O)N[C@@H](CCC(N)=O)C(=O)N[C@@H](CCC(N)=O)C(=O)N[C@H](C(=O)N[C@@H](CCCNC(=N)N)C(=O)N[C@@H](CO)C(=O)N[C@@H](CC(C)C)C(=O)N[C@H](C(=O)NCC(=O)N[C@@H](CC(N)=O)C(=O)N[C@@H](CCC(=O)O)C(=O)N[C@@H](CCC(=O)O)C(=O)N[C@@H](Cc1ccccc1)C(=O)N[C@@H](CC(C)C)C(=O)N[C@@H](CC(=O)O)C(=O)N[C@@H](Cc1ccc(O)cc1)C(=O)O)[C@@H](C)CC)C(C)C
## Result 5.09

## Task Please report pIC50 for the following compound: CC[C@H](C)[C@H](NC(=O)[C@H](CCCNC(=N)N)NC(=O)[C@H](CCCCN)NC(=O)[C@@H](NC(=O)[C@H](CCCNC(=N)N)NC(=O)[C@H](CCC(=O)O)NC(=O)CNC(=O)[C@@H](NC(=O)[C@@H](NC(=O)[C@H](CC(=O)O)NC(=O)[C@H](CCSC)NC(=O)[C@H](CC(N)=O)NC(=O)[C@@H]1CCCN1C(=O)[C@@H](NC(=O)[C@H](CCC(=O)O)NC(=O)[C@@H]1CCCN1)[C@@H](C)O)C(C)C)[C@@H](C)CC)[C@@H](C)CC)C(=O)N[C@@H](CCCCN)C(=O)O
## Result 5.86

## Task Please report pIC50 for the following compound: CC[C@H](C)[C@H](NC(=O)[C@H](CC(N)=O)NC(=O)CNC(=O)[C@@H](NC(=O)CNC(=O)[C@H](CC(N)=O)NC(=O)[C@@H](N)CO)[C@@H](C)O)C(=O)N[C@H](C(=O)N[C@@H](CO)C(=O)N[C@@H](CO)C(=O)N[C@H](C(=O)N[C@@H](CC(N)=O)C(=O)N[C@@H](CCSC)C(=O)N[C@H](C(=O)N[C@@H](CO)C(=O)N[C@@H](CCCNC(=N)N)C(=O)N[C@@H](CC(C)C)C(=O)O)C(C)C)C(C)C)C(C)C
## Result 5.20
